Experiment: in vitro
Settings: human, liver microsomes, CLH
Description: Microsomal stability in human liver microsomes assessed as intrinsic clearance
Label rule, in plain words: microsomal CLint of 40 µL/min/mg and up is Y, under 40 µL/min/mg is N.

1. C=CC(=O)N1CCN2c3ncnc4cc(-c5c(C)ccc6[nH]ncc56)c(Cl)c(c34)OC[C@@H]2C1 ... Y
2. C=CC(=O)N1CCN2Cc3cc(F)c(-c4c(O)cccc4Cl)c(F)c3OC[C@H]2C1.O ... N
3. C=CC(=O)N1CCN(c2nc(=O)n(-c3c(C)ccnc3C(C)C)c3nc(-c4c(O)cccc4F)c(F)cc23)[C@@H](C)C1 ... N
4. C=CC(=O)N1CCN(Cc2cc(F)c(-c3c(O)cccc3Cl)c(F)c2)CC1 ... N
5. C=CC(=O)N1CCN2Cc3cc(F)c(-c4c(C)cccc4O)c(F)c3OC[C@H]2C1 ... N
6. C=CC(=O)N1CCN2Cc3ccc(-c4c(C)ccc5[nH]ncc45)c(Cl)c3OCCC2C1 (stereo in doubt; 19) ... Y
7. C=CC(=O)N1CCN2Cc3cc(Cl)c(-c4c(O)cccc4Cl)c(F)c3OC[C@H]2C1 ... N
8. C=CC(=O)N1CCN2Cc3cc(C#N)c(-c4c(O)cccc4Cl)c(F)c3OC[C@H]2C1 ... N

====

Assay: Hepatic extraction ratio in Wistar Han rat at 1.1 to 2.3 microM/Kg, iv
Format: ADME
Settings: dose 1.1-2.3 µM/Kg, read-out: ERH
Measurement kind: hepatic extraction ratio

1) C=CC(=O)N1CCN2Cc3cc(C#CC)c(-c4c(O)cccc4Cl)c(F)c3OC[C@H]2C1 ... 0.75

====

Assay: Lipophilicity, logD of compound at 7.4
Conditions: octanol/water, pH 7.4, logD
Measurement kind: logD

1) C=CC(=O)N1CCN2Cc3ccc(-c4c(C)ccc5[nH]ncc45)c(Cl)c3OC[C@@H]2C1 ... 3.5
2) C=CC(=O)N1CCN2Cc3cc(C(F)F)c(-c4c(O)cccc4Cl)c(F)c3OC[C@H]2C1 ... 3
3) C=CC(=O)N1CCN2C(=O)c3ccc(-c4c(C)ccc5[nH]ncc45)c(Cl)c3OC[C@@H]2C1 ... 2.8
4) C=CC(=O)N1CCN(Cc2cc(F)c(-c3c(O)cccc3Cl)c(F)c2)CC1 ... 3.3
5) C=CC(=O)N1CCN2Cc3cc(OC(F)F)c(-c4c(O)cccc4Cl)c(F)c3OC[C@H]2C1 ... 2.7
6) C#Cc1cc(CN2CCN(C(=O)C=C)CC2)cc(F)c1-c1c(O)cccc1Cl ... 3.2
7) C=CC(=O)N1CCN2Cc3ccc(-c4c(C)ccc5[nH]ncc45)c(Cl)c3OCCC2C1 (stereo in doubt; 19) ... 3.2
8) C=CC(=O)N1C[C@H]2CCOc3c(Cl)c(-c4c(O)cccc4F)c(F)c4ncnc(c34)N2C[C@H]1C ... 3.2
9) C=CC(=O)N1CCN2Cc3ccc(-c4c(C)ccc5[nH]ncc45)c(Cl)c3OC[C@H]2C1 ... 3.2
10) C=CC(=O)N1CCN2Cc3cc(F)c(-c4c(O)cccc4Cl)c(F)c3OC[C@H]2C1.O ... 2.8
11) C=CC(=O)N1CCN2Cc3cc(C#N)c(-c4c(O)cccc4Cl)c(F)c3OC[C@H]2C1 ... 2.5

====

Experiment: Half life in Wistar Han rat at 1.1 to 2.3 microM/Kg, iv
Type: ADME
Settings: in vivo, dose 1.1-2.3 µM/Kg
Measurement kind: half-life (min)

1. C=CC(=O)N1CCN2Cc3cc(C#CC)c(-c4c(O)cccc4Cl)c(F)c3OC[C@H]2C1 ... 33.6
